Each entry below carries its recorded IC50.
- Target or system: GSK3β (Homo sapiens (Human))
- Sequence (P49841 whole entry): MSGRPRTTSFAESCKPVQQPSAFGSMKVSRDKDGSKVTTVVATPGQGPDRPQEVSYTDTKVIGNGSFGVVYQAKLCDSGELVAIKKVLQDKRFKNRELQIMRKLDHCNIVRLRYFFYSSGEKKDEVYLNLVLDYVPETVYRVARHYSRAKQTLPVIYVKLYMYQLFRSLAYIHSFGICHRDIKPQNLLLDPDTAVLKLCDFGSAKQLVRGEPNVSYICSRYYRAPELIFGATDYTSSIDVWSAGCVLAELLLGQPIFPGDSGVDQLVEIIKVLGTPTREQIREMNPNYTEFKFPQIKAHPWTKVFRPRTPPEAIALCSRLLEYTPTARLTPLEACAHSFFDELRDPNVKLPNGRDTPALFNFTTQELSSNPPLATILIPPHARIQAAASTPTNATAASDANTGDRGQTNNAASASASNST
- Assay: biochemical

Previously resolved entries follow.
Compound	Target or system	IC50
Cc1ccc(C2C3=C(CC(C)(C)CC3=O)Nc3n[nH]c(C)c32)cc1 (centres unmarked)	GSK3β (Homo sapiens (Human))	1000 to 5000 nM
CC[C@]1(c2ccccc2)C2=C(CC(C)(C)CC2=O)Nc2n[nH]c(C)c21	GSK3β (Homo sapiens (Human))	1000 to 5000 nM
Cc1[nH]nc2c1C(c1cccs1)C1=C(CC(C)(C)CC1=O)N2 (racemic)	GSK3β (Homo sapiens (Human))	101 to 1000 nM
Cc1[nH]nc2c1[C@@H](c1ccccc1C(F)(F)F)C1=C(CC(C)(C)CC1=O)N2	GSK3β (Homo sapiens (Human))	1000 to 5000 nM
CC[C@@]1(c2ccccc2)C2=C(CC(C)(C)CC2=O)Nc2n[nH]c(C)c21	GSK3β (Homo sapiens (Human))	< 100 nM
Cc1[nH]nc2c1[C@H](c1ccccc1Br)C1=C(CC(C)(C)CC1=O)N2 (racemic)	GSK3β (Homo sapiens (Human))	< 100 nM

IC50 of CCCC1(CCC)C2=C(CC(C)(C)CC2=O)Nc2n[nH]c(C)c21 on GSK3β (Homo sapiens (Human))?
101 to 1000 nM

Would you kindly repeat that for Cc1[nH]nc2c1C1(CCc3ccccc31)C1=C(CC(C)(C)CC1=O)N2 (centres unmarked) ?
101 to 1000 nM

Same thing, different compound: Cc1[nH]nc2c1C(c1cccnc1)C1=C(CC(C)(C)CC1=O)N2 (centres unmarked)
101 to 1000 nM

Same again, this time with Cc1[nH]nc2c1C(c1ccc(Cl)s1)C1=C(CC(C)(C)CC1=O)N2 (centres unmarked)
101 to 1000 nM

Would you mind doing Cc1[nH]nc2c1C(c1ccccc1C(F)(F)F)C1=C(CC(C)(C)CC1=O)N2 (racemic) as well?
< 100 nM

Same question for CC1(C)CC(=O)C2=C(C1)Nc1n[nH]c(C(F)(F)F)c1[C@@H]2c1ccccc1C(F)(F)F (racemic) please.
< 100 nM

Now this one: Cc1[nH]nc2c1C(c1ccc(C(F)(F)F)cc1)C1=C(CC(C)(C)CC1=O)N2 (centres unmarked)
5000 to 30000 nM

###

- Target or system: CK1δ (Homo sapiens (Human), UniProt P48730)
- Sequence (P48730 whole entry): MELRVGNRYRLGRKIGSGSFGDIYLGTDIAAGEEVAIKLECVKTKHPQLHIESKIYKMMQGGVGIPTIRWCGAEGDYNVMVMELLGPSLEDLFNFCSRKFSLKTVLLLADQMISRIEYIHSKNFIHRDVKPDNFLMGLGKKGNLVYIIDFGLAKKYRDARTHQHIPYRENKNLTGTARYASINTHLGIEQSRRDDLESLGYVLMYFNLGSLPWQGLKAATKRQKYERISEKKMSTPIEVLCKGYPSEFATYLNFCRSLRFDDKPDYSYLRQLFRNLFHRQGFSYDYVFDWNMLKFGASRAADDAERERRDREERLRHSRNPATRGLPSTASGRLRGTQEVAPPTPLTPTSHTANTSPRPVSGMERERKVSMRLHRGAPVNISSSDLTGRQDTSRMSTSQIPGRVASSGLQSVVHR
Attribute measured: Kd

Requested field: Kd. Item: Cc1[nH]nc2c1C(c1ccc(F)cc1)C1=C(CC(C)(C)CC1=O)N2 (stereo not shown) [Compound 12]
< 100 nM

###

- Condition summary: mouse microsomes, remaining after 1 hour
Attribute measured: Microsomal stability 60 min (%)

Please review the following examples before continuing.
Molecule	Microsomal stability 60 min / %
COc1ccccc1C1C2=C(CC(C)(C)CC2=O)Nc2n[nH]c(C(F)(F)F)c21 (racemic)	0.3
Cc1[nH]nc2c1C(C)(c1ccccc1)C1=C(CC(C)(C)CC1=O)N2 (centres unmarked)	32
CC1(C)CC(=O)C2=C(C1)Nc1n[nH]c(C3CC3)c1C2(C)c1ccccc1 (racemic)	44.8

I = CC1(C)CC(=O)C2=C(C1)Nc1n[nH]cc1[C@]2(C)c1ccccc1 (stereo in doubt)
II = Cc1[nH]nc2c1C(C)(c1cccc(C#N)c1)C1=C(CC(C)(C)CC1=O)N2 (racemic)
Return label of the item with the larger Microsomal stability 60 min. Candidates: I , II . # reply format: chosen label
I
(I: 108.2%, II: 68.2%)

###

- Target or system: GSK3α (Homo sapiens (Human), UniProt P49840)
- Sequence (P49840 whole entry): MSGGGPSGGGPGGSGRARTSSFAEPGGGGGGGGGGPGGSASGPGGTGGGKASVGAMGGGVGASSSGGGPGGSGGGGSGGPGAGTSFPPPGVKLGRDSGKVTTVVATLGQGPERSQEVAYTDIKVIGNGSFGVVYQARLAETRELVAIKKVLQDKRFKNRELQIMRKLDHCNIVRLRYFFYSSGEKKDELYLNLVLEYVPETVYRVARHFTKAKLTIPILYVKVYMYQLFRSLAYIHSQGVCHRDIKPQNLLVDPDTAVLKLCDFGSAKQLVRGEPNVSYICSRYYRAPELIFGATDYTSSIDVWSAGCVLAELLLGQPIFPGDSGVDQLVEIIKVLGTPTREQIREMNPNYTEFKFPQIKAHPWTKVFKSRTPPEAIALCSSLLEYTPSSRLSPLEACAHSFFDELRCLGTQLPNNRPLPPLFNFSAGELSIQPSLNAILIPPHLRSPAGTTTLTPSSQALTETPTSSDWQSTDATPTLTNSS
- Assay: biochemical
IC50 for assorted compounds

Completed entries (count: 2):
Compound	IC50
Cc1[nH]nc2c1[C@H](c1cccs1)C1=C(CC(C)(C)CC1=O)N2 [Compound 6]	0.101 to 1 µM
COc1ccccc1C1C2=C(CC(C)(C)CC2=O)Nc2n[nH]c(C)c21 (racemic) [Compound 20]	< 0.1 µM

For Cc1[nH]nc2c1C(c1cccc(C(F)(F)F)c1)C1=C(CC(C)(C)CC1=O)N2 (centres unmarked) [Compound 30] , what is its reported IC50?
0.101 to 1 µM

Now this one: CC1(C)CC(=O)C2=C(C1)Nc1n[nH]c(-c3ccccc3)c1C2(C)c1ccccc1 (centres unmarked) [Compound 121]
0.101 to 1 µM

Entry Cc1[nH]nc2c1C(c1ccn[nH]1)C1=C(CC(C)(C)CC1=O)N2 (centres unmarked) [Compound 40] please
0.101 to 1 µM

###

- Target or system: GSK3β (Homo sapiens (Human))
- Assay: biochemical
pKd: −log10 of the molar value.
// reported pKd per item

Solved entries (count: 3):
Compound	pKd
Cc1[nH]nc2c1C(c1cccnc1)C1=C(CC(C)(C)CC1=O)N2 (centres unmarked) [Compound 37]	6.00 to 7.00
Cc1[nH]nc2c1C(c1ccc3c(c1)OCO3)C1=C(CC(C)(C)CC1=O)N2 (centres unmarked) [Compound 26]	5.30 to 6.00
COc1ccc(C2C3=C(CC(C)(C)CC3=O)Nc3n[nH]c(C)c32)cc1 (centres unmarked) [Compound 24]	5.30 to 6.00

Given the entry Cc1[nH]nc2c1C(c1ccc(Cl)cc1)C1=C(CC(C)(C)CC1=O)N2 (centres unmarked) [Compound 15] , report its measured pKd.
5.30 to 6.00

Similarly, Cc1[nH]nc2c1C(c1ccc(F)cc1Cl)C1=C(CC(C)(C)CC1=O)N2 (centres unmarked) [Compound 35] ?
4.52 to 5.30

What do you have for COc1ccccc1C1C2=C(CC(C)(C)CC2=O)Nc2n[nH]c(C)c21 (racemic) [Compound 20] ?
7.22

Another: Cc1[nH]nc2c1C(c1ccc(Cl)s1)C1=C(CC(C)(C)CC1=O)N2 (centres unmarked) [Compound 9]
6.00 to 7.00

Same thing, different compound: Cc1[nH]nc2c1C(c1ccc(F)cc1)C1=C(CC(C)(C)CC1=O)N2 (centres unmarked) [Compound 12]
5.30 to 6.00

###

- Target or system: CDK5 (Homo sapiens (Human), UniProt Q00535)
- Sequence (Q00535 whole entry): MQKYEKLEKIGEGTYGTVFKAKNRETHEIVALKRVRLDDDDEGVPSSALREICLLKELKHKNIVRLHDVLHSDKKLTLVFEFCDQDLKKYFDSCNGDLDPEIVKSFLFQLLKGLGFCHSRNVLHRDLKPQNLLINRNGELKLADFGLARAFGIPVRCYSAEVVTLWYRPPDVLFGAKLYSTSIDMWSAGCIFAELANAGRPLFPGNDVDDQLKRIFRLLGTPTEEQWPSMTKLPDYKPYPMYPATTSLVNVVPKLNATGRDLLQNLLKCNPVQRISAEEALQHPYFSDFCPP
- Sequence (Q15078 99-307 partner): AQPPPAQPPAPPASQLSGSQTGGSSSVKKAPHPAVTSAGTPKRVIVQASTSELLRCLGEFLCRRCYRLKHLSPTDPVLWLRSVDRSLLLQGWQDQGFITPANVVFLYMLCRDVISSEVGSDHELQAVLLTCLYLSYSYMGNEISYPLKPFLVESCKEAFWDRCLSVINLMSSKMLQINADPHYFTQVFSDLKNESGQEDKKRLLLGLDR
- Assay: Carna Biosciences kinase assay, CDK5
- Assay type: biochemical
- Condition summary: dose response
Attribute measured: IC50 (µM)
Kindly provide the numeric value in µM only, without the unit symbol.

Requested read-out: IC50. Entry: COc1ccccc1[C@@H]1C2=C(CC(C)(C)CC2=O)Nc2n[nH]c(C)c21
1.4

###

- Target or system: UniProt:P49841
- Assay: biochemical
pIC50: −log10 of the molar value.
Attribute measured: pIC50

Take a look at these entries with their results.
Compound	Target or system	pIC50
CC1(C)CC(=O)C2=C(C1)Nc1n[nH]c(C3CC(F)(F)C3)c1[C@@]2(C)c1ccccc1 (stereo in doubt)	UniProt:P49841	6.00 to 7.00
Cc1[nH]nc2c1C(c1cccc(C(F)(F)F)c1)C1=C(CC(C)(C)CC1=O)N2 (stereo not shown)	UniProt:P49841	6.00 to 7.00

I am curious: what pIC50 value has been reported for Cc1[nH]nc2c1[C@](c1ccccc1)(C(F)(F)F)C1=C(CC(C)(C)CC1=O)N2 ?
5.30 to 6.00

Same question, CC1(C)CC(=O)C2=C(C1)Nc1n[nH]c(C3CC3)c1C2(C)c1cccc(C(F)(F)F)c1 (stereo not shown) this time
> 7.00

###

- Assay: Plasma protein binding (equilibrium dialysis), human plasma
- Type: in vitro ADME
- Condition summary: human, pH 7.4, read-out: Plasma protein binding % bound, human plasma (converted)
Attribute measured: fraction unbound at 5 h, 5 µM
Answer field: number only, no words.

State the recorded fraction unbound at 5 h, 5 µM for this entry: COc1ccccc1[C@@H]1C2=C(CC(C)(C)CC2=O)Nc2n[nH]c(C(F)(F)F)c21 [Compound 54]
0.07

###

- Target or system: GSK3α (Homo sapiens (Human))
- Assay: biochemical
Attribute measured: IC50

Worked cases, answers included:
Compound	IC50
Cc1[nH]nc2c1C(c1ccc3c(c1)OCO3)C1=C(CC(C)(C)CC1=O)N2 (stereo not drawn)	101 to 1000 nM
CC1(C)CC(=O)C2=C(C1)Nc1n[nH]c(F)c1C2(C)c1ccccc1 (stereo not drawn)	101 to 1000 nM
Cc1[nH]nc2c1C(c1ccc(Cl)cc1)C1=C(CC(C)(C)CC1=O)N2 (stereo not drawn)	101 to 1000 nM
Cc1[nH]nc2c1C(c1cccnc1)C1=C(CC(C)(C)CC1=O)N2 (stereo not drawn)	101 to 1000 nM
CCCC1(CCC)C2=C(CC(C)(C)CC2=O)Nc2n[nH]c(C)c21	101 to 1000 nM

Which measured IC50 value corresponds to CCC1(CC)C2=C(CC(C)(C)CC2=O)Nc2n[nH]c(C)c21 ?
101 to 1000 nM

Could you do the same for CC1(C)CC(=O)C2=C(C1)Nc1n[nH]c(Br)c1C2(C)c1ccccc1 (stereo not drawn) , please?
< 100 nM

Now the compound CCC1(c2ccccc2)C2=C(CC(C)(C)CC2=O)Nc2n[nH]c(C)c21 (racemic)
< 100 nM

Next compound up: Cc1[nH]nc2c1C(c1ccccn1)C1=C(CC(C)(C)CC1=O)N2 (stereo not drawn)
1000 to 5000 nM

Cc1[nH]nc2c1[C@](C)(c1cccc(C#N)c1)C1=C(CC(C)(C)CC1=O)N2 , same question.
< 100 nM

Another: Cc1[nH]nc2c1[C@@H](c1cccs1)C1=C(CC(C)(C)CC1=O)N2 (racemic)
101 to 1000 nM
